Data provenance is PubChem BioAssay AID588689.

As shown below, each of these molecules has a reported inhibition value.
Target: Genome polyprotein (Dengue virus type 2 (strain 16681-PDK53)) (UniProt P29991)
Sequence (P29991 whole entry, looked up): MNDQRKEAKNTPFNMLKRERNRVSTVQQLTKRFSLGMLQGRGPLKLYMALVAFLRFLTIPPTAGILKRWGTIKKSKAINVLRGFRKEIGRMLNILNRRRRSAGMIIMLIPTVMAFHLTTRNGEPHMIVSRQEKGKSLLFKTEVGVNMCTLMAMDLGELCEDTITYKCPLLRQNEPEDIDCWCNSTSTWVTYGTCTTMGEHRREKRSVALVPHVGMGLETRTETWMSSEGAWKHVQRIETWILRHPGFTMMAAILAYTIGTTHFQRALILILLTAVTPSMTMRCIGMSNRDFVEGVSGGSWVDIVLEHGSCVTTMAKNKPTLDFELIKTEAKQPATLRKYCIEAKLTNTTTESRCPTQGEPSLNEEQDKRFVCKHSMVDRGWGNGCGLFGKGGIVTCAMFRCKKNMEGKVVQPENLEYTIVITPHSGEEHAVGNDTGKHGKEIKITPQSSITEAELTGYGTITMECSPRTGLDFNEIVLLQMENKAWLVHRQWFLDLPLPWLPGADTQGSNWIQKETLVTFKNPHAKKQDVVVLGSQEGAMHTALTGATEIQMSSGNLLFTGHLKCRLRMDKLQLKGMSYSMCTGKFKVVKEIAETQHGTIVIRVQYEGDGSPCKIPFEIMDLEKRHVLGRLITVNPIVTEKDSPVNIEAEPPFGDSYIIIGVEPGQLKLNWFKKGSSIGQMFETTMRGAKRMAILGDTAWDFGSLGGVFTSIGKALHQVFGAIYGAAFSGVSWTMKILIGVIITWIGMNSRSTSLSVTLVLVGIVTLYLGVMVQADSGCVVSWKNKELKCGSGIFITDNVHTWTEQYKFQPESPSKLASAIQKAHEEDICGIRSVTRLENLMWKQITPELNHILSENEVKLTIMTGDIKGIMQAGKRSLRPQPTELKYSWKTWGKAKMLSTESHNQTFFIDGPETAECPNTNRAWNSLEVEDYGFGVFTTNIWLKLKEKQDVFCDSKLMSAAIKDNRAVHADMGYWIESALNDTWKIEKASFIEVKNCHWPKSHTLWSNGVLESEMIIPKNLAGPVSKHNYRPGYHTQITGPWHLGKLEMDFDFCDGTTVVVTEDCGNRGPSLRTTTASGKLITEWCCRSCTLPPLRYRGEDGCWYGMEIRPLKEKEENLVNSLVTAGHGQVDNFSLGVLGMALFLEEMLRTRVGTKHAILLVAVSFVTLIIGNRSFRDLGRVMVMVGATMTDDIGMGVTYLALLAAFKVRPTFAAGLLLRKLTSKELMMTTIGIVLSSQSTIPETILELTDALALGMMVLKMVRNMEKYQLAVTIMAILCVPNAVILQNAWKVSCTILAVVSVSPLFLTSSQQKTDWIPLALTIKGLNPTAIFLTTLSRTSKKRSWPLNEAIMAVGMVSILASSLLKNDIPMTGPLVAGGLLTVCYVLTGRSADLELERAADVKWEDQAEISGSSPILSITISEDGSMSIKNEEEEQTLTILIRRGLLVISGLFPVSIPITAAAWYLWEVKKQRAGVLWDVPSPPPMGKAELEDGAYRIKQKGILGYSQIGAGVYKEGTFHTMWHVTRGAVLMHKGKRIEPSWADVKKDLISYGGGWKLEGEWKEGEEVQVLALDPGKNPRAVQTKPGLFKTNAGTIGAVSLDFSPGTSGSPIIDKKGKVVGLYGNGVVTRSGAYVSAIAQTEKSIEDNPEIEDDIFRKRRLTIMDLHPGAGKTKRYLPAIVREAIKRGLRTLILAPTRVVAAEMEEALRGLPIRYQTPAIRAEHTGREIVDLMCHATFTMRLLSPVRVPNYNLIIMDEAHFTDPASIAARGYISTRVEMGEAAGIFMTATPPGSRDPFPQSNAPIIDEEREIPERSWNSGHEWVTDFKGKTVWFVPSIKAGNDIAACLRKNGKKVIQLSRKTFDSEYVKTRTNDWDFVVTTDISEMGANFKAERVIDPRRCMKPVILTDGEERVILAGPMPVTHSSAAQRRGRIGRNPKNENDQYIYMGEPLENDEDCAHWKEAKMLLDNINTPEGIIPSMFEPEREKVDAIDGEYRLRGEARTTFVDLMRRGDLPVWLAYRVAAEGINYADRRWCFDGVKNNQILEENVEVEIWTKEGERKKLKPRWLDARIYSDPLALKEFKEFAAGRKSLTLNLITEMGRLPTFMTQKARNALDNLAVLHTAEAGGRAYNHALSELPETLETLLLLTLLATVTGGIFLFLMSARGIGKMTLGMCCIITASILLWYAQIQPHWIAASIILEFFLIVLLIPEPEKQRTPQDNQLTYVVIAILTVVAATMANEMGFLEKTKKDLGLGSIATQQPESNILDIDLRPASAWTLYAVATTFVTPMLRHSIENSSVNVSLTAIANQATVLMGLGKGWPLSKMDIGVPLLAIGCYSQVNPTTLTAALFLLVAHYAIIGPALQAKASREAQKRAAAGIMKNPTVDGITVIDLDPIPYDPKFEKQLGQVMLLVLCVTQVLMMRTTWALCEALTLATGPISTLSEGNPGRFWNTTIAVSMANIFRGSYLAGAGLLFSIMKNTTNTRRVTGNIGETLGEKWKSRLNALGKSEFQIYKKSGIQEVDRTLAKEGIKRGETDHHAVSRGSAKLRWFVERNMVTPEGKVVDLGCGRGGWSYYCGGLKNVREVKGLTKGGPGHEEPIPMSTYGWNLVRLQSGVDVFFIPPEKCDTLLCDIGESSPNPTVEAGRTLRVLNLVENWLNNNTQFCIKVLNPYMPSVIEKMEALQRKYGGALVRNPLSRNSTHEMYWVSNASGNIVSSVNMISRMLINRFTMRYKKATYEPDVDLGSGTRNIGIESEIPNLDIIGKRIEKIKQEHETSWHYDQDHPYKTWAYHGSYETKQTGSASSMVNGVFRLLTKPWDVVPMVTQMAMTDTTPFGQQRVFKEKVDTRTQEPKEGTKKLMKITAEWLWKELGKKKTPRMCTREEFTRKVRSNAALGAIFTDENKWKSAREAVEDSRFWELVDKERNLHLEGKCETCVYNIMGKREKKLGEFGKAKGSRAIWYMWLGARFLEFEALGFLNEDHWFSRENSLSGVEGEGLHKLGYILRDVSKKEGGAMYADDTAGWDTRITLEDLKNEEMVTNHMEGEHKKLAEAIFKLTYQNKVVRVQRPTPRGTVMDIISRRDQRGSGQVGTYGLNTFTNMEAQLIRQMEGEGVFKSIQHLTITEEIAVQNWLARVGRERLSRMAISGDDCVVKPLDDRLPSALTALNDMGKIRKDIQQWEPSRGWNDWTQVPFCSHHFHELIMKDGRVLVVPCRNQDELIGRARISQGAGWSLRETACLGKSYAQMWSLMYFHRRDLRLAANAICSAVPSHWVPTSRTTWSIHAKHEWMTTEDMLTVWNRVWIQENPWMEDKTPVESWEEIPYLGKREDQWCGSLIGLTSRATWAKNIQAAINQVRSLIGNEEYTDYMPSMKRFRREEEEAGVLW
Assay: flavivirus cap methylation enzyme inhibition – biochemical, confirmation dose response, primary screen (AID 588689)
Details: Dengue-2 NS5 methyltransferase capping enzyme assay, at 25 µM, stronger effect = higher value
The whole screen tested about 340,000 compounds, of which about 1,000 (0.29%) were called active. Not all results are given here. Potency and affinity values are given separately.
Please state the figure in %; there is no need to write the unit.

Checklist item: inhibition tested on Genome polyprotein (Dengue virus type 2 (strain 16681-PDK53)) (UniProt P29991), entry CC(C)c1ccc(S(=O)(=O)Nc2ccc(N3CCOCC3)cc2)cc1 , value?
-9.76

What measured inhibition is associated with COc1cc(C=O)ccc1OCCOCCOc1ccc(Cl)cc1Cl on Genome polyprotein (Dengue virus type 2 (strain 16681-PDK53)) (UniProt P29991)?
-6.82

Fill in the recorded inhibition for this molecule, with Genome polyprotein (Dengue virus type 2 (strain 16681-PDK53)) (UniProt P29991) as test system: O=S(=O)(Nc1nccs1)c1cc(Cl)ccc1Cl
-13.7

# value lookup — system Genome polyprotein (Dengue virus type 2 (strain 16681-PDK53)) (UniProt P29991), readout inhibition, item O=C1C(Cl)=C(N2CCN(Cc3ccccc3)CC2)C(=O)N1c1ccccc1
67.7

Hello, I am looking for reported inhibition with Genome polyprotein (Dengue virus type 2 (strain 16681-PDK53)) (UniProt P29991) for N#Cc1ccc(OCc2nnc3n2CCCCC3)cc1 . Could you help?
-1.53

Find the measured inhibition: item CCCCn1c(N)c(N(CCOC)C(=O)CCc2ccc(OC)cc2)c(=O)[nH]c1=O , target or system Genome polyprotein (Dengue virus type 2 (strain 16681-PDK53)) (UniProt P29991).
-2.18

Query inhibition on Genome polyprotein (Dengue virus type 2 (strain 16681-PDK53)) (UniProt P29991) for O=C(Oc1ccc(/C=N/NC(=O)c2ccccn2)cc1)c1cccc(F)c1
0.65

Write down the reported inhibition of Cc1ccc(S(=O)(=O)CC(=O)c2cc3cccc(C)c3oc2=O)cc1 , test system: Genome polyprotein (Dengue virus type 2 (strain 16681-PDK53)) (UniProt P29991).
5.44
